# credit: paper PMC7826789

System: CAMK2A
Conditions: Compound Concentration (nM):1000;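 further: KINOMEscan scanMAX binding as percent activity remaining versus control; lower means stronger binding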
Respond with 1 for Percent Control values of 90% and above, 0 for values below.

# Compound, Group
data = [
    ("C/C(Nc1ccc(S(N)(=O)=O)cc1)=C1/C(=O)Nc2ccccc21 [GW335962X]", 0),
    ("Cc1cc(O)cc(C)c1/C=C/c1cncc(C(N)=O)c1 [GW435821X]", 1),
    ("Nc1ncnc2occ(-c3ccc(NC(=O)Nc4cc(C(F)(F)F)ccc4F)cc3)c12 [GW770249X]", 1),
    ("Cl.O=C(Nc1ccc(Oc2ccc3[nH]c(NC(=O)c4ccco4)nc3c2)cc1)Nc1cc(C(F)(F)F)ccc1F [GW683134A]", 0),
    ("CN1CCN(C(=O)c2ccc(NC(=O)Nc3ccc(N(C)c4ccnc(Nc5ccc(CS(C)(=O)=O)cc5)n4)cc3)cc2)CC1.Cl [GW830263A]", 0),
    ("CCS(=O)(=O)c1ccc(OC)c(Nc2ncc(-c3cccc(F)c3)o2)c1 [GW621970X]", 0),
]

* * *

Test system: DYRK1A
Conditions: Compound Concentration (nM):1000

# Molecule, Percent Control
rows = [
    ("NS(=O)(=O)c1ccc(Nc2ncc(-c3ccccc3)o2)cc1 [GW572399X]", "92%"),
    ("CC1=C(C(=O)Nc2ccc3[nH]ncc3c2)C(c2ccc(Cl)c(Cl)c2)CC(=O)N1 (stereo not shown) [GSK299115A]", "70%"),
    ("CCS(=O)(=O)c1ccc(OC)c(Nc2ncc(-c3cccc(F)c3)o2)c1 [GW621970X]", "61%"),
    ("Cl.O=C(Nc1ccc(Oc2ccc3[nH]c(NC(=O)c4ccco4)nc3c2)cc1)Nc1cc(C(F)(F)F)ccc1F [GW683134A]", "100%"),
]

* * *

Percent Control reference
Tested on: RIOK3
Settings: Compound Concentration (nM):1000

# Compound, Target Entity, Unit Tag, Percent Control
records = [
    ("COc1ccc2c(-c3ccnc(Nc4cccc(OC(F)(F)F)c4)n3)cnn2n1 [GW810372X]", "RIOK3", "%", 51),
    ("NS(=O)(=O)c1ccc(N/N=C2\\C(=O)Nc3ccc(C(=O)NCCc4c[nH]cn4)cc32)cc1 [GW300660X]", "RIOK3", "%", 78),
    ("CCS(=O)(=O)c1ccc(OC)c(Nc2ncc(-c3cccc(F)c3)o2)c1 [GW621970X]", "RIOK3", "%", 100),
    ("NS(=O)(=O)c1ccc(N/N=C2\\C(=O)Nc3ccc(Cl)cc32)cc1 [GW280670X]", "RIOK3", "%", 89),
    ("CC1=C(C(=O)Nc2ccc3[nH]ncc3c2)C(c2ccc3ccccc3c2)CC(=O)N1 (centres unmarked) [GSK270822A]", "RIOK3", "%", 88),
    ("O=C1Nc2ccc(C(=O)c3ccco3)cc2C1=Cc1cc(Cl)c(O)c(Cl)c1 [GW406108X]", "RIOK3", "%", 30),
    ("COc1ccc2[nH]c3c4[nH]c5ccc(OC)cc5c4c4c(c3c2c1)C(=O)NC4=O [GW296115X]", "RIOK3", "%", 100),
    ("Cl.O=C(O[C@H]1CN[C@H](C#Cc2cc3ncnc(Nc4ccc5c(cnn5Cc5ccccc5)c4)c3s2)C1)N1CCOCC1 [GSK200398A]", "RIOK3", "%", 100),
    ("O=C(Nc1n[nH]c2nc(-c3ccc(O)cc3)c(Br)cc12)C1CC1", "RIOK3", "%", 56),
    ("CC(C)COC(=O)c1ccc2c(c1)/C(=C/Nc1ccc(S(N)(=O)=O)cc1)C(=O)N2 [GW416981X]", "RIOK3", "%", 15),
    ("Cl.O=C(Nc1ccc(Oc2ccc3[nH]c(NC(=O)c4ccco4)nc3c2)cc1)Nc1cc(C(F)(F)F)ccc1F [GW683134A]", "RIOK3", "%", 40),
]
